# tested target: T1, Human Angiopoietin-2 full-length (hAng2) (human, UniProt O15123 19-496)
# T1 construct: The cell assays used full-length hAng2 from R&D Systems; also called human Ang2; A2
# T1 sequence: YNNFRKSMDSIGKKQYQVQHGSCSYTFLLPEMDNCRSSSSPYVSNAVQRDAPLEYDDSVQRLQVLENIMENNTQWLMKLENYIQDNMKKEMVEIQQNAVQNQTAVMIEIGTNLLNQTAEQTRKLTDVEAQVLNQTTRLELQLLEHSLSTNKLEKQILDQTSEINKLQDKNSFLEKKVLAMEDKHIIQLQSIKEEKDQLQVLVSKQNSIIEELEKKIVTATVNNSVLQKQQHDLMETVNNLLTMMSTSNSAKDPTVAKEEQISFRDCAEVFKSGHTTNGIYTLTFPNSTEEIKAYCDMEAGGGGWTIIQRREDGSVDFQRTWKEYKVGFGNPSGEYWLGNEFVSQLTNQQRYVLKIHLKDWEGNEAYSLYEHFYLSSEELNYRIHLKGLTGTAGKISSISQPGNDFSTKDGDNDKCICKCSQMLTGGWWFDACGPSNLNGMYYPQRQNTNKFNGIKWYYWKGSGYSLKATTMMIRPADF
# procedure text: BLI (Octet), antibody fixed on AR2G sensor, hAng2 3.125-50 nM in solution, 1:1 global fit
# Method: The affinity of humanized anti-Ang2 antibody against hAng2 was measured using Octet system (ForteBio). Specifically, buffer and samples were measured in total 200 μl/well using Black 96-well plates (96 well F-type black plates, Greiner). […] After the hydration, humanized anti-Ang2 antibody was diluted in 10 mM sodium acetate, pH 6.0 buffer at a concentration of 10 μg/ml, fixed on AR2G biosensor, and blocked with 1M ethanolamine. […]
endpoint: Kd (pM)

binder	endpoint	measured number
4B9H11G4 (human IgG4 class antibody of 4B9H11) (antibody, V domains shown, The heavy chain constant region was replaced by an IgG4 class constant region; The sentence prints '4B9 heavy chain gene' where 4B9H11 is meant; also called 4B9H11-IgG4) VH: QVQLVESGGGLVKPGGSLRLSCAASGFTFSDYYMYWIRQAPGKGLEWVSTISVGGSFTYYPDSVKGRFTISRDNAKNSLYLQMNSLRAEDTAVYYCARDWGLRPWFVYWGQGTLVTVSS VL: DIQMTQSPSSLSASVGDRVTITCKASQDVSTAVAWYQQKPGKAPKLLIYWASTRHTGVPSRFSGSGSGTDFTLTISSLQPEDFATYYCQQHYSTPPTFGQGTKVEIK	Kd	80
humanized anti-Ang2 antibody 2C8H21 (antibody, V domains shown, Full-length human IgG1) VH: QVQLVQSGAEVKKPGASVKVSCKASGYSFTSYWMHWVRQAPGQGLEWIGMIDPSDSETRLNQKFKDRVTMTRDTSTSTVYMELSSLRSEDTAVYYCARRFYYGSDWYFDVWGQGTLVTVSS VL: DIQLTQSPSFLSASVGDRVTITCKASQDVGTAVAWYQQKPGKAPKLLIYWASTRHTGVPSRFSGSGSGTEFTLTISSLQPEDFATYYCQQYSSYPLTFGQGTKVEIK	Kd	135
